# reported Bliss excess; entries follow
Tested on: RPMI-8402 (T-Lymphoblastic Leukemia);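 further: after 72 h of two-drug dosing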
Test: Bliss excess, mean over the matrix (fraction); higher = more synergy
Measured Property: Bliss excess

>>> readout_number("C[C@@H](Nc1cc(F)cc(F)c1)c1cc(C(=O)N(C)C)cc2c(=O)cc(N3CCOCC3)oc12 [AZD8186] + CC(=O)c1c(C)c2cnc(Nc3ccc(N4CCNCC4)cn3)nc2n(C2CCCC2)c1=O [Palbociclib] (first compound max 10 µM, 7x7, partner max 10 µM)")
0.0013
>>> readout_number("CN(CCO)CC[C@H](CSc1ccccc1)Nc1ccc(S(=O)(=O)NC(=O)c2ccc(N3CCC([C@@H](O)c4ccccc4-c4ccc(Cl)cc4)CC3)cc2)cc1S(=O)(=O)C(F)(F)F [AZD4320] + C[C@@H]1COCCN1C2=NC(=NC(=C2)C3(CC3)[S@](=N)(=O)C)C4=C5C=CNC5=NC=C4 [AZD6738] (first compound max 1 µM, 7x7, partner max 10 µM)")
0.031
>>> readout_number("Cc1nc(-c2cn3c(n2)-c2ccc(-c4cnn(C(C)(C)C(N)=O)c4)cc2OCC3)n(C(C)C)n1 [Taselisib] + O=C(Nc1ccc2[nH]nc(-c3ccncc3)c2c1)[C@@H]1CCN(CC(=O)N2CCN(c3ccc(-c4ncccn4)cc3)CC2)C1 [SCH772984] (first compound max 10 µM, 7x7, partner max 5 µM)")
0.0802
>>> readout_number("Cc1c2c(nn1C)CSCc1cc(n(C)n1)CSc1cc(c3ccccc3c1)OCCCc1c(C(=O)O)n(C)c3c-2c(Cl)ccc13 [AZD5991] + CCN(CCO)CCCOc1ccc2c(Nc3cc(CC(=O)Nc4cccc(F)c4)[nH]n3)ncnc2c1 [AZD2811] (first compound max 1 µM, 7x7, partner max 1 µM)")
0.0412
>>> readout_number("CCN(CCO)CCCOc1ccc2c(Nc3cc(CC(=O)Nc4cccc(F)c4)[nH]n3)ncnc2c1 [AZD2811] + O=C(c1cc(Cc2n[nH]c(=O)c3ccccc23)ccc1F)N1CCN(C(=O)C2CC2)CC1 [Olaparib] (first compound max 1 µM, 7x7, partner max 10 µM)")
-0.0279
>>> readout_number("CN(CCO)CC[C@H](CSc1ccccc1)Nc1ccc(S(=O)(=O)NC(=O)c2ccc(N3CCC([C@@H](O)c4ccccc4-c4ccc(Cl)cc4)CC3)cc2)cc1S(=O)(=O)C(F)(F)F [AZD4320] + CS(=O)(=O)CCNCc1ccc(-c2ccc3ncnc(Nc4ccc(OCc5cccc(F)c5)c(Cl)c4)c3c2)o1 [Lapatinib] (first compound max 1 µM, 7x7, partner max 10 µM)")
0.0949
